targetDesc: mouse TMEM16A mutant I512A (Mus musculus, UniProt Q8BHY3, I512A)
Construct: expressed in transfected cells; host or cells: HEK293T
experimentalProtocol: Inside-out patch recording of 1PBC block, mutant I512A
Format: cell-based
measurementSetup: I512A; V -140 mV
outcomeMeasure: IC50 (µM)
Give the quantity in µM, number only.

IC50 recorded for this molecule, N#Cc1c(C(F)(F)F)cc(O)n2c1nc1ccccc12 , is 80.9

====

targetDesc: mouse TMEM16A mutant R535A (Mus musculus, UniProt Q8BHY3, R535A)
Construct: expressed in transfected cells; host or cells: HEK293T
experimentalProtocol: Inside-out patch recording of 1PBC block, mutant R535A
Assay type: cell-based
measurementSetup: R535A; V 60 mV
outcomeMeasure: pIC50
pIC50 here: minus log base 10 of the concentration, concentration in moles per litre.

Record N#Cc1c(C(F)(F)F)cc(O)n2c1nc1ccccc12 [1PBC] . Reported pIC50: 5.18

====

targetDesc: mouse TMEM16A mutant Y514A (Mus musculus, UniProt Q8BHY3, Y514A)
Construct: expressed in transfected cells; host or cells: HEK293T
experimentalProtocol: Inside-out patch recording of 1PBC block, mutant Y514A
Type: cell-based
measurementSetup: 100 mV; 2 µM Ca2+
outcomeMeasure: IC50 (µM)
Your answer should be a plain number; it is taken to be in µM.

IC50 in this record for N#Cc1c(C(F)(F)F)cc(O)n2c1nc1ccccc12 : 12.5

====

targetDesc: mouse TMEM16A mutant V599A (Mus musculus, UniProt Q8BHY3, V599A)
Construct: expressed in transfected cells; host or cells: HEK293T
experimentalProtocol: Inside-out patch recording of 1PBC block, mutant V599A
Assay type: cell-based
measurementSetup: 100 mV; 15 µM Ca2+
outcomeMeasure: IC50 (µM)
The answer is to be given in µM; state only the numeric part.

Param item: N#Cc1c(C(F)(F)F)cc(O)n2c1nc1ccccc12 ; param system: mouse TMEM16A mutant V599A (Mus musculus, UniProt Q8BHY3, V599A); output IC50: 45

====

targetDesc: mouse TMEM16A mutant Q637A (Mus musculus, UniProt Q8BHY3, Q637A)
Construct: expressed in transfected cells; host or cells: HEK293T
experimentalProtocol: Inside-out patch recording of 1PBC block, mutant Q637A
Format: cell-based
measurementSetup: Q637A; V -120 mV
outcomeMeasure: pIC50
pIC50 (log units): -log10 of the concentration in mol/L.

The value of pIC50 recorded for N#Cc1c(C(F)(F)F)cc(O)n2c1nc1ccccc12 when tested on mouse TMEM16A mutant Q637A (Mus musculus, UniProt Q8BHY3, Q637A) reads 5.08

====

targetDesc: wild-type mouse TMEM16A (Mus musculus)
Construct: expressed in transfected cells; host or cells: HEK293T
Sequence (Q8BHY3 1-960): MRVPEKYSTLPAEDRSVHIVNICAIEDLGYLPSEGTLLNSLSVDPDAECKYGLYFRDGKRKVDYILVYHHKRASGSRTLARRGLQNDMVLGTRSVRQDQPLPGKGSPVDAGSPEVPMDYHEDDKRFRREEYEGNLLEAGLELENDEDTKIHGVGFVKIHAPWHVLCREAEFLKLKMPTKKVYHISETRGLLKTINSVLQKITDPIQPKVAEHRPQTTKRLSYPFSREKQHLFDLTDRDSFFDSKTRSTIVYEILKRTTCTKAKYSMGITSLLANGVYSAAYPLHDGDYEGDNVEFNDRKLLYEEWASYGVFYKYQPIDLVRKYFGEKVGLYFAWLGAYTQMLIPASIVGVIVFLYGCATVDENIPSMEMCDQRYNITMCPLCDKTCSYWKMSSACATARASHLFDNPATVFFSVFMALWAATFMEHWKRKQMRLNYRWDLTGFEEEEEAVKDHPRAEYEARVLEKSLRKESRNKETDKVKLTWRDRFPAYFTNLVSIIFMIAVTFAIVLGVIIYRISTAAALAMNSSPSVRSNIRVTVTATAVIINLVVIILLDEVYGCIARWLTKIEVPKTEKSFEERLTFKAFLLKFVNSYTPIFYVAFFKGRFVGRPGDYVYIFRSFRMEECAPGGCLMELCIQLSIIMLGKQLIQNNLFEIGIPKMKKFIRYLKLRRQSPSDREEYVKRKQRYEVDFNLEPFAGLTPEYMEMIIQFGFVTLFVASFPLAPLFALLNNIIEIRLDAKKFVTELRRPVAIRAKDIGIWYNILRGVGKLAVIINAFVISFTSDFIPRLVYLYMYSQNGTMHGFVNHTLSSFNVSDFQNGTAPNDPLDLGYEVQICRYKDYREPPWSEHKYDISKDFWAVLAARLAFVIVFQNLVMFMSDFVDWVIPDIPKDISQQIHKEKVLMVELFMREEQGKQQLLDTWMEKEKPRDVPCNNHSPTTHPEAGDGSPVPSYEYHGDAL
experimentalProtocol: Inside-out patch recording of 1PBC block, wild-type TMEM16A
Assay type: cell-based
measurementSetup: 80 mV; 2 µM Ca2+
outcomeMeasure: IC50 (nM)
Dear colleague, please return just the value in nM, with no unit written.

// IC50 value for N#Cc1c(C(F)(F)F)cc(O)n2c1nc1ccccc12 [1PBC] : 2060

====

targetDesc: mouse TMEM16A mutant I640A (Mus musculus, UniProt Q8BHY3, I640A)
Construct: expressed in transfected cells; host or cells: HEK293T
experimentalProtocol: Inside-out patch recording of 1PBC block, mutant I640A
Type: cell-based
measurementSetup: I640A; V -120 mV
outcomeMeasure: IC50 (µM)
Give just the number in µM; leave the unit off.

With mouse TMEM16A mutant I640A (Mus musculus, UniProt Q8BHY3, I640A) as the test system, N#Cc1c(C(F)(F)F)cc(O)n2c1nc1ccccc12 showed IC50 of 66

====

targetDesc: mouse TMEM16A mutant K603Q (Mus musculus, UniProt Q8BHY3, K603Q)
Construct: expressed in transfected cells; host or cells: HEK293T
experimentalProtocol: Inside-out patch recording of 1PBC block, mutant K603Q
Type: cell-based
measurementSetup: 0 mV; 4 µM Ca2+
Protocol: HEK293T cells (ATCC CRL-1573) were maintained in Dulbecco’s modified Eagle’s medium (DMEM; Sigma-Aldrich) supplemented with 10 U ml^−1 penicillin, 0.1 mg ml^−1 streptomycin (Sigma-Aldrich), 2 mM L-glutamine (Sigma-Aldrich), and 10% FBS (Sigma-Aldrich) in a humidified atmosphere containing 5% CO2 at 37 °C. […]
outcomeMeasure: pIC50
Hey, just a heads up that pIC50 is the negative log base 10 of the concentration in molar.

Measured pIC50, N#Cc1c(C(F)(F)F)cc(O)n2c1nc1ccccc12 [1PBC] : 3.71

====

targetDesc: mouse TMEM16A mutant I516A (Mus musculus, UniProt Q8BHY3, I516A)
Construct: expressed in transfected cells; host or cells: HEK293T
experimentalProtocol: Inside-out patch recording of 1PBC block, mutant I516A
Format: cell-based
measurementSetup: -100 mV; 2 µM Ca2+
outcomeMeasure: IC50 (µM)
// return numeric value only (unit: µM, not printed)

// IC50 (mouse TMEM16A mutant I516A (Mus musculus, UniProt Q8BHY3, I516A)) for N#Cc1c(C(F)(F)F)cc(O)n2c1nc1ccccc12 [1PBC] = 12.9

====

targetDesc: mouse TMEM16A mutant Y514A (Mus musculus, UniProt Q8BHY3, Y514A)
Construct: expressed in transfected cells; host or cells: HEK293T
Sequence (Q8BHY3 1-960 Y514A): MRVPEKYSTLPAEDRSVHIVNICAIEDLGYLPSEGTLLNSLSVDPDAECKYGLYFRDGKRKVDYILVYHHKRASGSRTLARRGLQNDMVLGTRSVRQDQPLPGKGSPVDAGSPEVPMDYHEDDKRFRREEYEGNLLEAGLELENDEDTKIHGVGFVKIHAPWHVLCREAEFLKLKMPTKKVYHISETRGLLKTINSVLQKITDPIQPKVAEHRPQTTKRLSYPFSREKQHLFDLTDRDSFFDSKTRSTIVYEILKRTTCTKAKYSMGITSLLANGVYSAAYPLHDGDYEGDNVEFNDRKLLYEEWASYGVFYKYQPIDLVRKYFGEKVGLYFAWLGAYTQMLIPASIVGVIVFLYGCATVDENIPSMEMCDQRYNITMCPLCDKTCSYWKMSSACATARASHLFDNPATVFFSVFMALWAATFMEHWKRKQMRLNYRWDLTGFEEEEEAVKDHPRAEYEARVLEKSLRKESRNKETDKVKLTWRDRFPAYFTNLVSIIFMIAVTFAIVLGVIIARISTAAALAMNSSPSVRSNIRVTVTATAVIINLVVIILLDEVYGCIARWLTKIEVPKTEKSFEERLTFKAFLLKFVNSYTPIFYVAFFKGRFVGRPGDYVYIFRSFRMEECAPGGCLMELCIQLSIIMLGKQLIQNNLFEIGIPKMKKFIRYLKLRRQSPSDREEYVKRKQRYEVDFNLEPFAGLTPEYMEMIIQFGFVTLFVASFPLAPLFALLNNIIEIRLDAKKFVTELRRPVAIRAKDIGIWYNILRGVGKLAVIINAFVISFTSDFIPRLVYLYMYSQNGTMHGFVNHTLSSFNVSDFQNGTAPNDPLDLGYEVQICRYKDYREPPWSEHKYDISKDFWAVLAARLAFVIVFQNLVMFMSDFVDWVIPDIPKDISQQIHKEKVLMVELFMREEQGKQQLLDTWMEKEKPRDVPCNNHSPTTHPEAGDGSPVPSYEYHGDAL
experimentalProtocol: Inside-out patch recording of 1PBC block, mutant Y514A
Format: cell-based
measurementSetup: Y514A; V 20 mV
outcomeMeasure: pIC50
// pIC50 here means minus log10 of the molar concentration (mol/L)

pIC50 reported for this compound N#Cc1c(C(F)(F)F)cc(O)n2c1nc1ccccc12 : 4.71

These data points were gathered from paper PMC9120017.
